Assay: Therapeutic range / therapeutic index (quotient of LD 50 and ED 20%)
Settings: in vivo; quotient of LD 50 (mouse i.p.) and ED 20% (rat i.v.)
Below, each entry is listed alongside its reported selectivity ratio.
Lab note: record the figure alone, no unit after it.

Would you please look over these solved cases?
| COMPOUND | selectivity ratio |
| --- | --- |
| CCOc1ccccc1N1CCN(CC(O)COc2cccc(-c3nnco3)c2)CC1 (stereo not shown) [Example 9] | 25600 |
| COc1ccccc1N1CCN(CCCNc2cc(=O)n(C)c(=O)n2C)CC1 [Urapidil, reference compound] | 1920 |
| COc1ccccc1N1CCN(CC(O)COc2ccccc2-c2nnc(C)o2)CC1 (stereo not shown) [Example 2] | 2540 |

Exercise: Could you tell me which selectivity ratio is on file for COc1ccccc1N1CCN(CC(O)COc2cccc(-c3nnco3)c2)CC1 (stereo not shown) [Example 7] ?
Key: 2850

Exercise: Could you tell me which selectivity ratio is on file for Cc1nnc(-c2cccc(OCC(O)CN3CCN(c4ccccc4Cl)CC3)c2)o1 (stereo not shown) [Example 16] ?
Key: 2490

Exercise: Could you tell me which selectivity ratio is on file for CCOc1ccccc1N1CCN(CC(O)COc2cccc(-c3nnc(C)o3)c2)CC1 (stereo not shown) [Example 12] ?
Key: 8300

Exercise: Could you tell me which selectivity ratio is on file for COc1ccccc1N1CCN(CC(O)COc2cccc(-c3nnc(C)o3)c2)CC1 (stereo not shown) [Example 10] ?
Key: 6730
